System: MALME-3M melanoma
EXPERIMENTAL_DETAILS: NCI tumour cell line growth inhibition, 48 h
Hi there, I'd appreciate the recorded TGI for every entry that follows.

So what does the record say about TGI for O=S(=O)(O)c1cc(N=Nc2c(O)ccc3ccccc23)cc2c(S(=O)(=O)O)cccc12 ?
> 100 µM

So what does the record say about TGI for CC1NC(=O)C(C)C(c2ccccc2)N(N=O)C1c1ccccc1 (stereo not given) ?
> 100 µM

So what does the record say about TGI for S=P1(Oc2ccccc2)NNP2(=NP(N3CC3)(N3CC3)=NP(N3CC3)(N3CC3)=N2)NN1 (stereo not given) ?
> 100 µM

So what does the record say about TGI for COC1=CC(=O)C(C2(OC(C)C)OC(=O)C(Cl)=C2Cl)=CC1=O (stereo not given) ?
> 100 µM

So what does the record say about TGI for O=C1/C(=C/c2ccco2)NC(=S)N1CN1CCCCC1 ?
> 100 µM

So what does the record say about TGI for COc1ccc(C(SCCO)(c2ccccc2)c2ccc(OC)cc2)cc1 ?
31.4 µM

So what does the record say about TGI for O=C(O)C(Cl)Cl ?
> 10000 µM

So what does the record say about TGI for Clc1ccc2cccc3c2c1C1OC3c2ccccc21 (stereo not given) ?
> 100 µM

So what does the record say about TGI for N#C/C(N)=C(\C#N)NC=NCCO ?
> 100 µM

So what does the record say about TGI for CCNC(=O)C#Cc1ccc2c(C(=Nc3ccc(CN(C)C)cc3)c3ccccc3)c(O)[nH]c2c1 ?
0.0268 µM

So what does the record say about TGI for O=C(Nc1c(O)[nH]c(=S)[nH]c1=O)c1ccccc1 ?
> 100 µM

So what does the record say about TGI for O=C(O)Cc1ccc([N+](=O)[O-])cc1[N+](=O)[O-] ?
> 100 µM

So what does the record say about TGI for COc1ccc(/C=C/COC(C)=O)cc1OC ?
> 100 µM

So what does the record say about TGI for COC(=O)c1cccc(C)c1C1CN=NC12Cc1cc(C)cc(C)c1C2=O (stereo not given) ?
> 100 µM

So what does the record say about TGI for C[N+]12C=CC=C1C(N1CCCC1)c1scc(-c3ccc(Br)cc3)c12 (stereo not given) ?
25.4 µM

----------
Test system: IGROV1 ovarian
EXPERIMENTAL_DETAILS: NCI tumour cell line growth inhibition, 48 h
Hi there, I'd appreciate the recorded TGI for every entry that follows.

So what does the record say about TGI for CCOC(=O)c1cc(-c2ccc(OC)cc2)c([N+](=O)[O-])n1C ?
> 10 µM

So what does the record say about TGI for N#C/C(N)=C(\C#N)NC=NCCO ?
> 100 µM

So what does the record say about TGI for CC(=O)OCc1ccc2c(c1)C(O)NC(=O)O2 (stereo not drawn) ?
> 100 µM

----------
Test system: OVCAR-3 ovarian
EXPERIMENTAL_DETAILS: NCI tumour cell line growth inhibition, 48 h
Quick rule for you: TGI at 20 µM or higher means t, lower means f.

hey, is TGI for this one >= 20 µM? Cc1ccc(S[C@@H](C)[C@@](O)(CF)CN(Cc2ccccc2)C(=O)C(F)(F)F)cc1
t

hey, is TGI for this one >= 20 µM? C=CCNC(=S)N/C=C(\C#N)C(N)=O
t

hey, is TGI for this one >= 20 µM? COc1ccc(C(SCCO)(c2ccccc2)c2ccc(OC)cc2)cc1
t

hey, is TGI for this one >= 20 µM? COc1ccc(Cn2c(Br)c3c(c2Br)-c2nc(N)sc2CC3)cc1
f

hey, is TGI for this one >= 20 µM? Cc1ccc(-c2nc(N3CCNCC3)c3oc(-c4ccc(C)cc4)nc3n2)cc1
f

hey, is TGI for this one >= 20 µM? COc1cc2c(/C=C3/C(=O)Nc4cccc(Cl)c43)c(Cl)[nH]c2cc1C
f

hey, is TGI for this one >= 20 µM? NCCNCCNCCN
t

hey, is TGI for this one >= 20 µM? O=C1NC2(CCN(CCc3ccccc3)CC2)Oc2ccccc21
t

hey, is TGI for this one >= 20 µM? COc1ccc(/C=C/COC(C)=O)cc1OC
t

hey, is TGI for this one >= 20 µM? CCOC(=O)c1csc(NC(=O)CN2CCCC2)n1
t

hey, is TGI for this one >= 20 µM? O=C(Nc1c(O)[nH]c(=S)[nH]c1=O)c1ccccc1
t

hey, is TGI for this one >= 20 µM? COc1cc(-c2cccs2)sc1-c1cccs1
t

hey, is TGI for this one >= 20 µM? O=C(Nc1nn2c(-c3cc(C(F)(F)F)cc(C(F)(F)F)c3)nnc2s1)C1CCCC1
t

----------
System: CAKI-1 renal
EXPERIMENTAL_DETAILS: NCI tumour cell line growth inhibition, 48 h; in the data active means GI50 below about 0.43 µM; inactive means the rest
Pick from active, inactive when you respond.

// outcome(item) with item = O=C1OCC2=C1C(c1cccc(Br)c1)c1cc3c(cc1N2CCO)OCCO3 (configuration not stated)
active

// outcome(item) with item = Cc1ccc(-c2nc(N3CCNCC3)c3oc(-c4ccc(C)cc4)nc3n2)cc1
inactive

// outcome(item) with item = COCCn1cc(-c2nc(-c3cc4cccnc4[nH]3)cs2)c2cc(OC)ccc21
inactive

// outcome(item) with item = COc1ccc(Cn2c(Br)c3c(c2Br)-c2nc(N)sc2CC3)cc1
inactive

// outcome(item) with item = O=C1C(C(Nc2ccccc2)c2ccccc2)=C([O-])c2ccccc21.O=C1C(C(Nc2ccccc2)c2ccccc2)=C([O-])c2ccccc21.[Cu+2] (configuration not stated)
inactive

// outcome(item) with item = Fc1cc(-c2nnc3n2N=C(c2ccc(Cl)cc2)CS3)c(Cl)cc1Cl
inactive

// outcome(item) with item = c1ccc(-c2n(Cc3ccc4ccccc4n3)cc[n+]2Cc2ccc3ccccc3c2)cc1
inactive

// outcome(item) with item = NC(=S)N/N=C1\c2cc(Cl)ccc2-c2c1cc(Cl)cc2[N+](=O)[O-]
inactive

// outcome(item) with item = CC(C)(C)[Si](C)(C)OC1[C@@H](O[Si](C)(C)C(C)(C)C)[C@@H](CNC(=O)NC(=O)C(F)(F)F)O[C@H]1n1cnc2c(NC(=O)Nc3ccccc3)ncnc21 (some centres not stated)
inactive

// outcome(item) with item = CCCCCCCCCCSC(=N)N (tested in a mixture with another compound)
inactive

// outcome(item) with item = O=C1c2c(F)c(F)c(F)c(F)c2C(=O)N1c1ccc(F)cc1F
inactive

// outcome(item) with item = CN1CCN(C(=O)COc2ccc(C34CC5CC(CC(C5)C3)C4)cc2)CC1
inactive

----------
System: HT29 colon
EXPERIMENTAL_DETAILS: NCI tumour cell line growth inhibition, 48 h
Hi there, I'd appreciate the recorded TGI for every entry that follows.

So what does the record say about TGI for O=C(CC1Sc2ccccc2NC1=O)Nc1ccccc1[N+](=O)[O-] (stereo not drawn) ?
> 100 µM

So what does the record say about TGI for CCOC(=O)c1cc(-c2ccc(OC)cc2)c([N+](=O)[O-])n1C ?
> 10 µM

So what does the record say about TGI for C/C(CN1C(=O)c2ccccc2C1=O)=N\NS(=O)(=O)c1ccc(Cl)cc1 ?
> 100 µM

----------
Tested on: IGROV1 ovarian
EXPERIMENTAL_DETAILS: NCI tumour cell line growth inhibition, 48 h
Hi there, I'd appreciate the recorded TGI for every entry that follows.

So what does the record say about TGI for CN1CCN(c2ccc(Nc3ncc(Cl)c(NC[C@@H]4CCCO4)n3)cc2)CC1 ?
> 100 µM

So what does the record say about TGI for O=C(C(=O)n1ccc2ccccc21)n1ccc2ccccc21 ?
53.1 µM

So what does the record say about TGI for CC#Cc1ccc(-c2ccccc2)s1 ?
> 100 µM

So what does the record say about TGI for C[C@@H]1CC[C@H]2C(C)(C)[C@H]3C[C@@]12CC[C@@]3(C)O ?
> 100 µM

So what does the record say about TGI for Cc1ccc(S(=O)(=O)N2C3C=CC(C3)[C@@H]2C(Cl)(Cl)Cl)cc1 (stereo partly specified) ?
> 71 µM

So what does the record say about TGI for Cc1nn(C(=O)Cc2ccccc2)c2c1C(c1ccccc1)SC(N)=N2 (stereo unspecified) ?
> 100 µM

----------
System: 786-0 renal
EXPERIMENTAL_DETAILS: NCI tumour cell line growth inhibition, 48 h
VALUE_KIND: TGI

So what does the record say about TGI for N#CC(C(=O)CCC(=O)Nc1ccc(Cl)c(Cl)c1)c1ccccc1 (stereo not drawn) ?
> 100 µM

So what does the record say about TGI for CN(C)C=Nc1nc(=O)n(C2CCC(CO)O2)cc1F (stereo not drawn) ?
> 100 µM

So what does the record say about TGI for CN(C)CC1CCC/C1=N/OC(=O)c1ccccc1 (stereo not drawn) ?
> 100 µM

----------
Hi there, I'd appreciate the recorded TGI for every entry that follows.
Tested on: SNB-19 CNS
EXPERIMENTAL_DETAILS: NCI tumour cell line growth inhibition, 48 h

So what does the record say about TGI for COc1ccccc1CC(=O)C(O)(C(F)(F)F)C(F)(F)F ?
> 100 µM

So what does the record say about TGI for COc1cc(C2C(Cl)C(=O)N2n2cnc3ccccc3c2=O)ccc1O (stereo not drawn) ?
> 100 µM

So what does the record say about TGI for C(=C/CCCN1O[C@@H](CCCCCCCCc2cccnc2)[C@H]2CCC[C@H]21)/CCCCCCCCCc1cccnc1 ?
85 µM

So what does the record say about TGI for CCOC(=O)c1cn2c(n1)sc1cc(F)ccc12 ?
> 100 µM

So what does the record say about TGI for Cc1ccc(S(=O)(=O)N2C3C=CC(C3)[C@@H]2C(Cl)(Cl)Cl)cc1 (stereo partly drawn) ?
> 87.6 µM

So what does the record say about TGI for COc1ccc2oc3c(C)cc4c(OC)nnc(OC)c4c3c2c1 ?
> 100 µM

So what does the record say about TGI for O=C1/C(=C/c2ccco2)NC(=S)N1CN1CCCCC1 ?
> 100 µM

So what does the record say about TGI for COc1ccc(NC(=S)c2ccc(CN3CCCCC3)s2)cc1 ?
43.9 µM
